Molecular target: human P2Y1 receptor (Homo sapiens)
Assay: [3H]MRS2279 binding assay, membranes from astrocytoma cells
Conditions: read-out: Binding (Ki), Astrocytoma; competition for [3H]MRS2279 (8 nM) binding, 30 min, 4°C
pKi: −log10 of the molar value.
Quantity Measured: pKi

molecule="Nc1ccc(CCSc2nc(N)c3ncn([C@@H]4O[C@H](COP(=O)(O)OP(=O)(O)OP(=O)(O)O)[C@@H](O)[C@H]4O)c3n2)cc1 [PAPET-ATP, 2-[4-amino (2-phenylethyl)thio]-ATP]" quantity_measured=pKi experimental_value=5.96

====

Target: human P2Y1 receptor (Homo sapiens, UniProt P47900)
Sequence (P47900 whole entry): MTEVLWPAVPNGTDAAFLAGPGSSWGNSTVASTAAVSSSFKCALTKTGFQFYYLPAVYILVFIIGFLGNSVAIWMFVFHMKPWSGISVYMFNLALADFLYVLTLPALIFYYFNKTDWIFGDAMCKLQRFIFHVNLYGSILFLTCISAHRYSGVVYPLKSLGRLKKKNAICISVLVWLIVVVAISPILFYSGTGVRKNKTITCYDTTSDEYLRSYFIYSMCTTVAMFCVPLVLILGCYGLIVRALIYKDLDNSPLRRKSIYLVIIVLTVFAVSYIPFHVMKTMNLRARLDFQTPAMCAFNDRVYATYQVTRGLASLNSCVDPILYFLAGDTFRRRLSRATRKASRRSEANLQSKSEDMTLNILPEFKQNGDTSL
Experiment: [3H]MRS2279 binding assay, membranes from astrocytoma cells
Quantity Measured: Ki

compound="Nc1ncnc2c1ncn2[C@@H]1O[C@H](COP(=O)(O)OP(=O)(O)S)[C@@H](O)[C@H]1O (stereo partly drawn) [ADP-β-S, adenosine 5′-O-(2-thio-diphosphate)]" experimental_value="710 nM"

====

Quick reference: pEC50 of the listed items.
Target: human P2Y1 receptor (Homo sapiens, UniProt P47900)
Assay type: cell-based
pEC50: −log10 of the molar value.
Quantity Measured: pEC50

compound="Nc1ncnc2c1ncn2[C@@H]1O[C@H](COP(=O)(O)OP(=O)(O)O)[C@@H](O)[C@H]1O [ADP, adenosine 5′-diphosphate]" quantity_measured=pEC50 experimental_value=7.24
compound="Nc1ncnc2c1ncn2[C@@H]1O[C@H](COP(=O)(O)OP(=O)(O)S)[C@@H](O)[C@H]1O (stereo partly drawn) [ADP-β-S, adenosine 5′-O-(2-thio-diphosphate)]" quantity_measured=pEC50 experimental_value=7.07
